- testedTarget: Nuclear receptor coactivator 1 (Homo sapiens)
- assay: SRC1 coactivator transcriptional activity inhibitors, confirmation, cell-based, luminescence, quadruplicate (AID 588820);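 further: 0% = DMSO wells and 100% = gossypol 36 µM treated wells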
- conditionSummary: HEK293 GAL4-SRC1 luciferase reporter, at 3.6 µM, stronger effect = higher value
Recorded inhibition determines the label; the label ranges are 1 (below 30%), 2 (30% to below 40%), 3 (40% or more)

Task item: Sort `Cc1ccc2occ(/C=N/NC(=O)c3ccccc3O)c(=O)c2c1` into one of the categories.
Reply: 1

Task item: Also `N#Cc1c2ccc(O)cc2n2ccccc12` , if possible.
Reply: 3

Task item: Also `Cc1ccc(C#CC[N+]2(CC#Cc3ccc(C)cc3)CCCCC2)cc1` , if possible.
Reply: 2

Task item: Also O=C(Nc1ccc2c(c1)OCCO2)C(c1cc2ccccc2o1)N1CCN(C/C=C/c2ccccc2)CC1 (stereo unspecified) , if possible.
Reply: 1

Task item: Also `Cc1ccccc1C(=O)/C(C#N)=N/Nc1c(C)n(C)n(-c2ccccc2)c1=O` , if possible.
Reply: 2

Task item: Also COc1ccc2c(c1OC)C(=O)N1c3ccccc3C(=O)N(c3ccccc3)C21 (stereo unspecified) , if possible.
Reply: 1

Task item: Also Cc1ccsc1C(=O)OCC(=O)c1cc(C)n(CC2CCCO2)c1C (stereo unspecified) , if possible.
Reply: 3

Task item: Also CCC(=O)NC(c1ccc(C)cc1)c1ccc2cccnc2c1O (stereo unspecified) , if possible.
Reply: 3

Task item: Also `CCN1/C(=C/C(C)=C/c2sc3ccccc3[n+]2CC)Sc2ccccc21` , if possible.
Reply: 3

Task item: Also O=C(NC1CCCCC1)C(c1cccnc1)N(C(=O)CCl)c1cccc(Cl)c1 (stereo unspecified) , if possible.
Reply: 2
